# protocolDescription: patients with anti-drug antibodies; higher = more immunogenic

{"protein": "unnamed (protein) chain 1: EVQLVESGGGLVQPGGSLRLSCAASGFSLSNYYVTWVRQAPGKGLEWVGIIYGSDETAYATSAIGRFTISRDNSKNTLYLQMNSLRAEDTAVYYCARDDSSDWDAKFNLWGQGTLVTVSS chain 2: AIQMTQSPSSLSASVGDRVTITCQASQSINNELSWYQQKPGKAPKLLIYRASTLASGVPSRFSGSGSGTDFTLTISSLQPDDFATYYCQQGYSLRNIDNAFGGGTKVEIK", "unitInfo": "%", "patients with anti-drug antibodies": 1.8}
{"protein": "unnamed (protein) chain 1: EVQLVESGGGLVQPGGSLRLSCAASGFTLRSYSMNWVRQAPGKGLEWVSYISRSSHTIFYADSVKGRFTISRDNAKNSLYLQMDSLRDEDTAMYYCARVYSSGWHVSDYFDYWGQGILVTVSS chain 2: AIQLTQSPSSLSASVGDRVTITCRASQGISSALAWYQQKPGKAPKLLIYDASSLESGVPSRFSGSGSGTDFTLTISSLQPEDFATYYCQQFNSYPLTFGGGTKVEIK", "unitInfo": "%", "patients with anti-drug antibodies": 2.9}
{"protein": "unnamed (protein) chain 1: QVQLVQSGAEVKKPGASVKVSCKASGYTFTSHWMHWVRQAPGQGLEWIGEFNPSNGRTNYNEKFKSKATMTVDTSTNTAYMELSSLRSEDTAVYYCASRDYDYDGRYFDYWGQGTLVTVSS chain 2: DIQMTQSPSSLSASVGDRVTITCSASSSVTYMYWYQQKPGKAPKLLIYDTSNLASGVPSRFSGSGSGTDYTFTISSLQPEDIATYYCQQWSSHIFTFGQGTKVEIK", "unitInfo": "%", "patients with anti-drug antibodies": 10}
{"protein": "unnamed (protein) chain 1: EVQLVESGGDLVQPGRSLRLSCVASGFTFDDYAMHWVRQAPGKGLEWVSGVSWSGSTVGYADSVKGRFTVSRDNAQKSLYLQMNSLRAEDTALYYCVKDAYKFNYYYYGLDVWGQGTTVTVSS chain 2: EIVMTQSPATLSVSPGERATLSCRASQTILSNLAWYLQKPGQAPRLLIYGASTRATGLPARFSGSGSGTEFTLTISSLQSEDFAVYYCQQYNNWPLTFGGGTKVEIK", "unitInfo": "%", "patients with anti-drug antibodies": 5}
{"protein": "unnamed (protein) chain 1: QVQLVQSGVEVKKPGASVKVSCKASGYTFTNYYMYWVRQAPGQGLEWMGGINPSNGGTNFNEKFKNRVTLTTDSSTTTAYMELKSLQFDDTAVYYCARRDYRFDMGFDYWGQGTTVTVSS chain 2: EIVLTQSPATLSLSPGERATLSCRASKGVSTSGYSYLHWYQQKPGQAPRLLIYLASYLESGVPARFSGSGSGTDFTLTISSLEPEDFAVYYCQHSRDLPLTFGGGTKVEIK", "unitInfo": "%", "patients with anti-drug antibodies": 1.7}

Provenance of the data: the FLAb antibody collection
